The reported measurements were obtained from the supplement of paper PMC10065799.

phosphorylation enrichment by entry:
- System: AncSZ
- assay: phosphorylation enrichment, bacterial display (enrichment ratio); higher = better substrate or ligand; peptides without Tyr show the background
property: phosphorylation enrichment

sequence-content: LITTLYIDFLG [KCNQ1_Y267_G269D]
reported-measurement: 1.42

sequence-content: EQMLEYMGQLQ [CFAP45_Y289_E291G]
reported-measurement: 0.913

sequence-content: RQGQAYRGQRV [TSHR_Y706_A703G]
reported-measurement: 0.718

sequence-content: SHKELYKWFTS [DYNC1H1_Y3051_E3048K]
reported-measurement: 0.634

sequence-content: SECCKYKIDNL [OSMR_Y689_P694L]
reported-measurement: 0.864

sequence-content: NHFKIYNLFAE [PTEN_Y68_C71Y_YF]
reported-measurement: 1.14

sequence-content: GLDGSYLLRDS [SH2D1A_Y29]
reported-measurement: 0.574

sequence-content: ASQEEYSAMRD [KRAS_Y64_G60S]
reported-measurement: 1.08

sequence-content: KSMFVYCTPNK [ATP2A2_Y497_S495F]
reported-measurement: 1.22

sequence-content: TLSGIYQYNIA [FOXL2_Y81_I84N]
reported-measurement: 1.32

sequence-content: WASSSYRETPS [SORBS1_Y79_R74W]
reported-measurement: 0.57

sequence-content: AFPVSYSSSGA [RET_Y687]
reported-measurement: 0.511

sequence-content: TFEFRYLEDRD [CNOT3_Y746_YF]
reported-measurement: 1.35

###

Reported SH2 binding enrichment values for the following sequences.
- assay-system: c-Src SH2
- assay: SH2 binding enrichment of the phosphorylated peptide, bacterial display (enrichment ratio); higher = better substrate or ligand; peptides without Tyr show the background

sequence-content: ISTAGYSFPEL [EDAR_Y406_I408F]
SH2 binding enrichment: 6.7
//
sequence-content: DYTEAYNSKIK [CLK1_Y305_P307S]
SH2 binding enrichment: 1
//
sequence-content: HNLYSYPTKYE [MYO3A_Y1396_H1400Y]
SH2 binding enrichment: 1.31
//
sequence-content: SVVVPYEPAEV [TP53_Y220_P223A]
SH2 binding enrichment: 1.11

###

# phosphorylation enrichment annotations
- assay-system: FGFR3 (UniProt P22607)
- Sequence (P22607 whole entry, looked up): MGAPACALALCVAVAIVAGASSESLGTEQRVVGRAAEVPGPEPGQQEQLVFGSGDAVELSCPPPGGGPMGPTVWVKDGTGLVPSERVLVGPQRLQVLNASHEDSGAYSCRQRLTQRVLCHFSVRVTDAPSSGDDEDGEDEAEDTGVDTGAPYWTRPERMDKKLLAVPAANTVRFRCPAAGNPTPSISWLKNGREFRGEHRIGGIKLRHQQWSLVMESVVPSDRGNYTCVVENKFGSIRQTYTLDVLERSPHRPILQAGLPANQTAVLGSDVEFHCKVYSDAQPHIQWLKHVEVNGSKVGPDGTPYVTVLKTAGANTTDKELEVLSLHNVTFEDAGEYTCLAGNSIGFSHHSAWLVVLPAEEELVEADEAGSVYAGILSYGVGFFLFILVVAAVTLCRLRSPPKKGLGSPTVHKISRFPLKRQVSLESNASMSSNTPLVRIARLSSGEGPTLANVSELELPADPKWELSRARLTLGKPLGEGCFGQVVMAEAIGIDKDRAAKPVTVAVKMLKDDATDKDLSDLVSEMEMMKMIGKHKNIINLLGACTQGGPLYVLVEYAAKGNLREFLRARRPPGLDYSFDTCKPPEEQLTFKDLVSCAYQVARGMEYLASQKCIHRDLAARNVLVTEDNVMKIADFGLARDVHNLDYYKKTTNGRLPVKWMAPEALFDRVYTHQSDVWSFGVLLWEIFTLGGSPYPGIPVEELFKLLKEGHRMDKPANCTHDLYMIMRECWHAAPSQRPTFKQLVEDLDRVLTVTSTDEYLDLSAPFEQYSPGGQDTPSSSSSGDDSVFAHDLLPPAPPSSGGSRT
- assay: phosphorylation enrichment, bacterial display (enrichment ratio); higher = better substrate or ligand; peptides without Tyr show the background
property: phosphorylation enrichment

sequence-content: LEAVSYSSPFA [RNLS_Y190_R193P_YF]
assay-system: FGFR3 (UniProt P22607)
reported-measurement: 0.661
//
sequence-content: PHMQTYEVDPN [SDHB_Y61_L65P]
assay-system: FGFR3 (UniProt P22607)
reported-measurement: 0.761
//
sequence-content: PFFTSYPPSPD [GDAP2_Y491_YF]
assay-system: FGFR3 (UniProt P22607)
reported-measurement: 0.644

###

// values below are reported phosphorylation enrichment
- assay-system: FGFR3 (UniProt P22607)
- assay: phosphorylation enrichment, bacterial display (enrichment ratio); higher = better substrate or ligand; peptides without Tyr show the background

sequence-content: TLSGIYQYNIA [FOXL2_Y81_I84N]
assay-system: FGFR3 (UniProt P22607)
phosphorylation enrichment: 0.701
--
sequence-content: TDTAAYEERLR [SPTB_Y474_V478L]
assay-system: FGFR3 (UniProt P22607)
phosphorylation enrichment: 0.71
--
sequence-content: ASQEEYSAMRD [KRAS_Y64_G60S]
assay-system: FGFR3 (UniProt P22607)
phosphorylation enrichment: 0.68

###

- assay-system: c-Src SH2;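 note: peptide library displayed on the E. coli surface as eCPX fusions, selected cells deep-sequenced, score is each peptide's frequency after selection divided by its frequency in the input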
- assay: SH2 binding enrichment of the phosphorylated peptide, bacterial display (enrichment ratio); higher = better substrate or ligand; peptides without Tyr show the background

sequence-content: FEPDAYFDLDQ [ELP5_Y302_D303Y_YF]
SH2 binding enrichment: 0.501
--
sequence-content: EVEFQYPFRLH [SYP_Y73_E72Q]
SH2 binding enrichment: 0.489
--
sequence-content: GGPTYYIDTNA [ACTL6A_Y69]
SH2 binding enrichment: 0.679
--
sequence-content: ALTRSYVREKV [CYP2C8_Y243_I244V]
SH2 binding enrichment: 0.495
--
sequence-content: TTPGPYRSIFF [MPG_Y71_YF]
SH2 binding enrichment: 0.688
--
sequence-content: KNSFKYYMSDD [ATRX_Y203_C200S]
SH2 binding enrichment: 0.708
--
sequence-content: WIPIQDPIISE [NOG_Y222_Y222D]
SH2 binding enrichment: 0.488

###

- Tested on: c-Abl (mouse)
- assay: phosphorylation enrichment, bacterial display (enrichment ratio); higher = better substrate or ligand; peptides without Tyr show the background
Tick MET if phosphorylation enrichment is 0.6 or greater. Tick NOT MET if phosphorylation enrichment is less than 0.6.

sequence-content: TDTAAYEERLR [SPTB_Y474_V478L]
label-class: NOT MET

sequence-content: GSERRYSREGG [PTPRN2_Y139]
label-class: NOT MET

sequence-content: DAANNYARGHF [TUBA3E_Y103_S101N_YF]
label-class: MET

sequence-content: DFEGLYQEGGG [TMEM159_Y159_E154D]
label-class: NOT MET

sequence-content: RLLVIYPWTQR [HBG2_Y36_V35I]
label-class: MET

sequence-content: DTQNSYWCATS [TSC1_Y304_G305W]
label-class: MET

sequence-content: GSSEGYLHMVH [NIPBL_Y247_D246G]
label-class: NOT MET

sequence-content: CTTIHFNYMCN [TP53_Y234_Y234F]
label-class: NOT MET

sequence-content: EQMLEYMGQLQ [CFAP45_Y289_E291G]
label-class: MET

sequence-content: IVTLKYPIEHG [ACTB_Y69_L65V]
label-class: MET

sequence-content: CTTIHYNFMCK [TP53_Y234_N239K_YF]
label-class: NOT MET

sequence-content: ITNLLYHVVSW [GBA_Y412_G416S]
label-class: MET

sequence-content: SSEFHCVGGFF [CTSC_Y347_Y347C_YF]
label-class: MET

sequence-content: DKTGEYPVPLT [ACADM_Y73_I78T]
label-class: NOT MET

###

- Tested on: c-Abl (mouse)
- assay: phosphorylation enrichment, bacterial display (enrichment ratio); higher = better substrate or ligand; peptides without Tyr show the background
The sequences listed here are annotated with their phosphorylation enrichment.

sequence-content: ISDNACQFMLT [MYH7_Y162_Y162C_YF]
phosphorylation enrichment: 0.696

sequence-content: ILTYKYLQIPM [KIT_Y547_K550I]
phosphorylation enrichment: 0.706

sequence-content: ADRNHYRRYPR [YBX1_Y145]
phosphorylation enrichment: 0.717

sequence-content: MTRDIYETDYY [INSR_Y1185]
phosphorylation enrichment: 0.712

###

- System: Fer (mouse)
- assay: phosphorylation enrichment, bacterial display (enrichment ratio); higher = better substrate or ligand; peptides without Tyr show the background

sequence-content: KIIRWYVSSEG [ANK2_Y3907_R3906W]
assay-system: Fer (mouse)
phosphorylation enrichment: 0.543
//
sequence-content: CNTIHYNFMCN [TP53_Y234_T230N_YF]
assay-system: Fer (mouse)
phosphorylation enrichment: 0.483
//
sequence-content: KMGNIYRTEFG [MRPL3_Y265_YF]
assay-system: Fer (mouse)
phosphorylation enrichment: 0.393
//
sequence-content: RHPFFFAPELL [ALB_Y174_Y174F_YF]
assay-system: Fer (mouse)
phosphorylation enrichment: 0.529
//
sequence-content: MKKMHYVDPDR [ST3GAL5_Y99_H104R]
assay-system: Fer (mouse)
phosphorylation enrichment: 0.346
//
sequence-content: QYQLKYSETPF [SIX6OS1_Y129]
assay-system: Fer (mouse)
phosphorylation enrichment: 0.43
//
sequence-content: TGYRPYVCPFD [YY1_Y383_D380Y]
assay-system: Fer (mouse)
phosphorylation enrichment: 0.574
//
sequence-content: LVIIKYLPEWT [PSEN1_Y240_F237I]
assay-system: Fer (mouse)
phosphorylation enrichment: 0.911
//
sequence-content: RQNQEYEILLD [KRT39_Y379]
assay-system: Fer (mouse)
phosphorylation enrichment: 0.595
//
sequence-content: QRDSSYFWEIE [RAF1_Y340_YF]
assay-system: Fer (mouse)
phosphorylation enrichment: 0.813
//
sequence-content: VDDEIYFFRKP [PBRM1_Y1289_YF]
assay-system: Fer (mouse)
phosphorylation enrichment: 0.652
//
sequence-content: FQCLRYIKQLG [SAMHD1_Y146_R143C]
assay-system: Fer (mouse)
phosphorylation enrichment: 0.428
//
sequence-content: LDPMVYMNDTS [PTK2B_Y834_K838T]
assay-system: Fer (mouse)
phosphorylation enrichment: 0.787
//
sequence-content: KLKNAYEESLE [MYH7_Y1488]
assay-system: Fer (mouse)
phosphorylation enrichment: 0.454
//
sequence-content: ASKEPYFVRCI [MYO1D_Y585_YF]
assay-system: Fer (mouse)
phosphorylation enrichment: 0.569
//
sequence-content: RAYRRYLLKQK [SCN2A_Y1919]
assay-system: Fer (mouse)
phosphorylation enrichment: 0.415
//
sequence-content: REIHDYIKHLG [UNC13C_Y308_D304E]
assay-system: Fer (mouse)
phosphorylation enrichment: 0.651
//
sequence-content: ISIFHYAKGQP [MPZ_Y82]
assay-system: Fer (mouse)
phosphorylation enrichment: 0.434
//
sequence-content: INASGYRVGPA [ACSM1_Y477_I479V]
assay-system: Fer (mouse)
phosphorylation enrichment: 0.563
//
sequence-content: DSGRDYVSQFE [APOA1_Y53]
assay-system: Fer (mouse)
phosphorylation enrichment: 0.478
//
sequence-content: CTTIHYNFMCK [TP53_Y234_N239K_YF]
assay-system: Fer (mouse)
phosphorylation enrichment: 0.351
//
sequence-content: AHAGKYGAEAL [HBA1_Y25_E24K]
assay-system: Fer (mouse)
phosphorylation enrichment: 0.342
//
sequence-content: ITNLLYHVVSW [GBA_Y412_G416S]
assay-system: Fer (mouse)
phosphorylation enrichment: 5.89
//
sequence-content: YCRIMYDIFPF [INTS13_Y67]
assay-system: Fer (mouse)
phosphorylation enrichment: 2.06
//
sequence-content: KNSFKYYMSDD [ATRX_Y203_C200S]
assay-system: Fer (mouse)
phosphorylation enrichment: 0.405
//
sequence-content: KLIETYSSKNF [PLP1_Y50_F51S_YF]
assay-system: Fer (mouse)
phosphorylation enrichment: 0.388
